All figures here come from patent US6646137B1.

Target: human GnRH receptor (Homo sapiens, UniProt P30968)
Construct: The cDNA for the human GnRH receptor is cloned into the plasmid expression vector, pcDNA 3; expressed in transfected cells; host or cells: HEK 293 cells, stably transfected (pcDNA 3); membrane preparation
Sequence (P30968 1-328): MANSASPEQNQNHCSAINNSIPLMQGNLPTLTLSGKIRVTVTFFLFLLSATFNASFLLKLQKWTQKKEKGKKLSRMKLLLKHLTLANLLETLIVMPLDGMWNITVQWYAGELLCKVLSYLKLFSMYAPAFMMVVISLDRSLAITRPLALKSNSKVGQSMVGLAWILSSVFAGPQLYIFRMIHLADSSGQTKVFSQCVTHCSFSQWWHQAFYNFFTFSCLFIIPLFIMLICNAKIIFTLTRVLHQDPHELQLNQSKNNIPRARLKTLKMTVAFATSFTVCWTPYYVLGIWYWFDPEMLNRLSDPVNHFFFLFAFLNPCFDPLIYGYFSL
Experiment: GnRH receptor competitive radioligand binding assay (125I-GnRH-A, HEK 293 cell membranes)
Settings: compound at 10 μM; crude compounds; 125I-GnRH-A; lower value = higher inhibition; read-out: % Remaining 2nd Test (percent of specific binding remaining)
Method: The cDNA for the human GnRH receptor is cloned into the plasmid expression vector, pcDNA 3 (In Vitrogen), and stably transfected in HEK 293 cells (a cell line developed by Dr. Stuart Sealfon, Mount Sinai Medical School, New York, N.Y.). […] The radioiodinated agonist analog of GnRH, [des-Gly^10, D-Ala^8]GnRH ethylamide (GnRH-A), is used as the labeled ligand. […] Fractions are assessed for biological activity by radioligand binding. […]
remaining activity at 10 µM reference
PROPERTY_NAME: remaining activity at 10 µM (%)

compound=Cc1cc2c(cc1CN(Cc1ccc(CNC(=N)N)cc1)C(=O)c1ccco1)C(C)(C)CCC2(C)C assay_result=11
compound="CC(C)(C)c1ccc(CN(CC2CCC(CNC(=N)N)CC2)C(=O)c2ccco2)cc1 (centres unmarked)" assay_result=65
compound="N=C(N)NCc1cccc(CN(CC23CC=CCC2C2CC=CCC2O3)C(=O)C2CCCCC2)c1 (centres unmarked)" assay_result=61
compound=N=C(N)NCCCCN(Cc1ccc(OCc2ccccc2)c(OCc2ccccc2)c1)C(=O)c1cccc2ccccc12 assay_result=57
compound=Cc1cc2c(cc1CN(Cc1cccc(CNC(=N)N)c1)C(=O)c1ccco1)C(C)(C)CCC2(C)C assay_result=11
compound="Cc1cc2c(cc1CN(CC1CCC(CNC(=N)N)CC1)C(=O)c1c(C)noc1C)C(C)(C)CCC2(C)C (centres unmarked)" assay_result=60
compound="CC(C)(C)c1ccc(CN(CC2CCCC(CNC(=N)N)C2)C(=O)c2cccs2)cc1 (centres unmarked)" assay_result=53
compound="CCCCN(CCCC)c1ccc(CN(CC2CCC(CNC(=N)N)CC2)C(=O)c2ccco2)cc1 (centres unmarked)" assay_result=56
compound=Cc1cc2c(cc1CN(CCCCNC(=N)N)C(=O)c1ccccc1)C(C)(C)CCC2(C)C assay_result=45
compound="N=C(N)NCc1cccc(CN(CC23CC=CCC2C2CC=CCC2O3)C(=O)c2cccc3ccccc23)c1 (centres unmarked)" assay_result=55
compound="N=C(N)NCc1ccc(CN(CC23CC=CCC2C2CC=CCC2O3)C(=O)c2cccs2)cc1 (centres unmarked)" assay_result=45

###

Molecular target: human GnRH receptor (Homo sapiens)
Construct: The cDNA for the human GnRH receptor is cloned into the plasmid expression vector, pcDNA 3; expressed in transfected cells; host or cells: HEK 293 cells, stably transfected (pcDNA 3); membrane preparation
Sequence (P30968 1-328): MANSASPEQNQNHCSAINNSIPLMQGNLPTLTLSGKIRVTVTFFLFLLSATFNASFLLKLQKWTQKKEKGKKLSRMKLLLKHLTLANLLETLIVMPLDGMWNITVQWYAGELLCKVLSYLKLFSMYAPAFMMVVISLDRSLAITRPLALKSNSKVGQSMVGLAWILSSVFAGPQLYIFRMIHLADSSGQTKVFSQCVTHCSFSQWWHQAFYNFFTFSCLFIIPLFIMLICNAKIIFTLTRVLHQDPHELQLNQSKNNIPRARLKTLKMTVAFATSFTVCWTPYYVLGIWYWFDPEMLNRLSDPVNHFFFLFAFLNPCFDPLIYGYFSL
Experiment: GnRH receptor competitive radioligand binding assay (125I-GnRH-A, HEK 293 cell membranes)
Settings: compound at 10 μM; average of 1st and 2nd test; read-out: Average % Remaining (percent of specific binding remaining)
Simple rule here: remaining activity at 10 µM less than 50% is YES, otherwise NO.

molecule="Cc1cc2c(cc1CN(Cc1ccc(CNC(=N)N)cc1)C(=O)c1cccc3ccccc13)C(C)(C)CCC2(C)C [Compound 11]" assigned_label=NO
molecule="Cc1cc2c(cc1CN(CCCCNC(=N)N)C(=O)c1ccco1)C(C)(C)CCC2(C)C [Compound 30]" assigned_label=YES
molecule="CN(C)Cc1ccc(CN(CC2C=CCC3C4CC=CCC4OC23)C(=O)c2ccc3ccccc3c2)cc1 (centres unmarked) [Compound 68]" assigned_label=YES
molecule="N=C(N)NCC1CCCC(CN(Cc2ccc3c(c2)OCCO3)C(=O)c2ccc3ccccc3c2)C1 (centres unmarked) [Compound 66]" assigned_label=NO

###

remaining activity at 10 µM for assorted compounds
target: human GnRH receptor (Homo sapiens, UniProt P30968); construct: The cDNA for the human GnRH receptor is cloned into the plasmid expression vector, pcDNA 3; expressed in transfected cells; host or cells: HEK 293 cells, stably transfected (pcDNA 3); membrane preparation; assay: GnRH receptor competitive radioligand binding assay (125I-GnRH-A, HEK 293 cell membranes); conditions: compound at 10 μM; crude compounds; 125I-GnRH-A; lower value = higher inhibition; read-out: % Remaining 1st Test (percent of specific binding remaining)
PROPERTY_NAME: remaining activity at 10 µM

compound="Cc1cc2c(cc1CN(CC1CCC(CNC(=N)N)CC1)C(=O)C1CCCC1)C(C)(C)CCC2(C)C (stereo not shown)" assay_result=52%
compound="Cc1cc2c(cc1CN(CC1CCCC(CNC(=N)N)C1)C(=O)c1cccc3ccccc13)C(C)(C)CCC2(C)C (stereo not shown)" assay_result=46%
compound="N=C(N)NCC1CCCC(CN(CC23CC=CCC2C2CC=CCC2O3)C(=O)c2ccc(Cl)nc2)C1 (stereo not shown)" assay_result=53%
compound=CCOc1cc(OCC)c(OCC)cc1CN(Cc1ccc(CNC(=N)N)cc1)C(=O)c1ccco1 assay_result=52%
compound="CCCCN(CCCC)c1ccc(CN(CC2CCC(CNC(=N)N)CC2)C(=O)c2ccco2)cc1 (stereo not shown)" assay_result=58%
compound=CC(=O)N(Cc1ccc(CNC(=N)N)cc1)Cc1ccc(OCc2ccccc2)c(OCc2ccccc2)c1 assay_result=46%
compound="CCOC(=O)C(=O)N(Cc1cc2c(cc1C)C(C)(C)CCC2(C)C)CC1CCC(CNC(=N)N)CC1 (stereo not shown)" assay_result=61%
compound="N=C(N)NCc1ccc(CN(CC23CC=CCC2C2CC=CCC2O3)C(=O)c2ccco2)cc1 (stereo not shown)" assay_result=51%
compound="CC(C)(C)c1ccc(CN(CC2CCCC(CNC(=N)N)C2)C(=O)c2ccccc2)cc1 (stereo not shown)" assay_result=58%
compound=N=C(N)NCCCCN(Cc1ccc(OCc2ccccc2)c(OCc2ccccc2)c1)C(=O)C1CCCCC1 assay_result=52%
compound=Cc1cc2c(cc1CN(Cc1ccc(CNC(=N)N)cc1)C(=O)C1CCCCC1)C(C)(C)CCC2(C)C assay_result=51%
compound="CC(C)(C)c1ccc(CN(CC2CCCC(CNC(=N)N)C2)C(=O)c2cccs2)cc1 (stereo not shown)" assay_result=47%
compound=Cc1cc2c(cc1CN(CCCCNC(=N)N)C(=O)c1ccccc1)C(C)(C)CCC2(C)C assay_result=44%
compound="N=C(N)NCCCCN(CC12CC=CCC1C1CC=CCC1O2)C(=O)c1cccc2ccccc12 (stereo not shown)" assay_result=41%
compound=Cc1cc2c(cc1CN(CCCCNC(=N)N)C(=O)c1cccc3ccccc13)C(C)(C)CCC2(C)C assay_result=46%
compound="CC(C)(C)c1ccc(CN(CC2CCC(CNC(=N)N)CC2)C(=O)c2ccco2)cc1 (stereo not shown)" assay_result=54%
compound=CC(=O)N(CCCCNC(=N)N)Cc1ccc(OCc2ccccc2)c(OCc2ccccc2)c1 assay_result=50%
compound=CN(C)Cc1ccc(CN(Cc2ccc(OCc3ccccc3)c(OCc3ccccc3)c2)C(=O)c2cccs2)cc1 assay_result=59%
compound="N=C(N)NCc1cccc(CN(CC23CC=CCC2C2CC=CCC2O3)C(=O)c2ccc3ccccc3c2)c1 (stereo not shown)" assay_result=46%
compound="N=C(N)NCC1CCC(CN(CC23CC=CCC2C2CC=CCC2O3)C(=O)c2cc3ccccc3s2)CC1 (stereo not shown)" assay_result=59%
compound="N=C(N)NCC1CCC(CN(Cc2cc3c(cc2Cl)OCO3)C(=O)c2ccco2)CC1 (stereo not shown)" assay_result=56%
compound="Cc1cc2c(cc1CN(CC1CCC(CNC(=N)N)CC1)C(=O)c1c(C)noc1C)C(C)(C)CCC2(C)C (stereo not shown)" assay_result=44%
